Biological target: T1, CRBN, Q96SW2;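 also: pooled lentiviral library of zinc finger degron-EGFP fusions in mCherry-positive Jurkat cells, FACS-sorted after compound exposure, with degron abundance counted by next-generation sequencing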
T1 chain: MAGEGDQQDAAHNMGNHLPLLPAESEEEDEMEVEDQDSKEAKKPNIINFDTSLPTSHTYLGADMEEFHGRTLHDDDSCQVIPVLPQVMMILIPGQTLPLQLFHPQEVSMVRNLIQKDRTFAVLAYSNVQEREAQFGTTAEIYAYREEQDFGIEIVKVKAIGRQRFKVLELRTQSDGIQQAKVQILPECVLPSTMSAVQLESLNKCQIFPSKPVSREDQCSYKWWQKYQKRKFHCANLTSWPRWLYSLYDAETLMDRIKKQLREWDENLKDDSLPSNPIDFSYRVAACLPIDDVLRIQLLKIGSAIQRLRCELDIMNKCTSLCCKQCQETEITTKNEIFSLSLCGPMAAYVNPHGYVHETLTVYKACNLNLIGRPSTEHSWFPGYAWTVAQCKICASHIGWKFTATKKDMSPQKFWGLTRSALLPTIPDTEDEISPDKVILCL
Test: log2 fold change of degron read counts, EGFP-low vs EGFP+ sorted cells (limma voom), compound-induced degradation; higher = more compound-induced degradation of the degron-EGFP fusion; degrons are variants of IKZF1/3 zinc finger 2; compound dose not given here
Details: Jurkat; 18 h; compound: thalidomide
The full ranking holds about 8,300 sequences; the median of “log2 fold change of degron read counts, EGFP-low vs EGFP+ sorted cells (limma voom), compound-induced degradation” is about -1.1, and the highest 2% start at about 3.2. The list comes from a sample in which the highest values are over-represented; it also holds close analogues and randomly drawn sequences.

# Entry sequence, log2 fold change of degron read counts
records = [
    ("FSCPICGRCFTQKGNLLRHIKL [46F_47S_49P_50I_52G_53R_54C_55F_67L_, Q9UKT9]", -0.39),
    ("FECDVCGAMFTQKGNLLRHIKL [46F_47E_49D_50V_52G_53A_54M_55F_67L_, Q9UKT9]", -1.53),
    ("FYCPICGACFTQKGNLLRHIKL [46F_47Y_49P_50I_52G_53A_54C_55F_67L_, Q9UKT9]", 1.59),
    ("FFCNVCGASFTQKGNLLRHIKL [46F_47F_49N_50V_52G_53A_54S_55F_67L_, Q9UKT9]", -0.573),
    ("FTCEQCGAYFTQKGNLLRHIKL [46F_47T_49E_50Q_52G_53A_54Y_55F_67L_, Q9UKT9]", -0.424),
    ("FGCNQCGHWFTQKGNLLRHIKL [46F_47G_49N_50Q_52G_53H_54W_55F_67L_, Q9UKT9]", -0.959),
    ("FTCPQCGAAFTQKGNLLRHIKL [46F_47T_49P_50Q_52G_53A_54A_55F_67L_, Q9UKT9]", 0.798),
    ("FDCPICGACFTQKGNLLRHIKL [46F_47D_49P_50I_52G_53A_54C_55F_67L_, Q9UKT9]", 2.13),
    ("FECEICGHTFTQKGNLLRHIKL [46F_47E_49E_50I_52G_53H_54T_55F_67L_, Q9UKT9]", -2.57),
    ("FYCPQCGAMFTQKGNLLRHIKL [46F_47Y_49P_50Q_52G_53A_54M_55F_67L_, Q9UKT9]", -1.06),
    ("FMCDVCGAIFTQKGNLLRHIKL [46F_47M_49D_50V_52G_53A_54I_55F_67L_, Q9UKT9]", -1.7),
    ("FKCPICGRQFTQKGNLLRHIKL [46F_47K_49P_50I_52G_53R_54Q_55F_67L_, Q9UKT9]", -0.821),
    ("FQCPICGACFTQKGNLLRHIKL [46F_47Q_49P_50I_52G_53A_54C_55F_67L_, Q9UKT9]", 3.77),
    ("FACNQCGAFFTQKGNLLRHIKL [46F_47A_49N_50Q_52G_53A_54F_55F_67L_, Q9UKT9]", -2.28),
    ("FDCNVCGATFTQKGNLLRHIKL [46F_47D_49N_50V_52G_53A_54T_55F_67L_, Q9UKT9]", -1.1),
]
